- Assayed target: rat μ (C6-MOR) opioid receptor (Rattus norvegicus)
- Construct: expressed in transfected cells
- Sequence (P33535 whole entry): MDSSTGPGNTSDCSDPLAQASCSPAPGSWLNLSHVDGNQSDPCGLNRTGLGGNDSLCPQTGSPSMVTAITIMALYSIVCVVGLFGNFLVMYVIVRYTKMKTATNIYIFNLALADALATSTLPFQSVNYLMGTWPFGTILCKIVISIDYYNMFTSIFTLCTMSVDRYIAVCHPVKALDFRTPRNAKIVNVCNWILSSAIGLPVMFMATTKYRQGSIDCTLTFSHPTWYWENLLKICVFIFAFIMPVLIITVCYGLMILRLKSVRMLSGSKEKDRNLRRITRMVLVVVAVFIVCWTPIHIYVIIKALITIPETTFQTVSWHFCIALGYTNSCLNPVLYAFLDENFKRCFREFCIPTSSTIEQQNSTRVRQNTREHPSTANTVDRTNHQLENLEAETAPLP
- Procedure summary: Stimulation of [35S]GTPγS binding, MOR
- Format: biochemical
- Condition details: [35S]GTPγS binding, C6-MOR membranes; mean ± standard error
// pEC50 lookup, one value per entry
// pEC50: -log10(molar conc.)

INSERT INTO results (compound, assayed_target, numeric_value) VALUES
  ('Cc1cc(O)cc(C)c1C[C@H](N)C(=O)N[C@@H]1CCNc2c(Cc3ccccc3)cccc21 [Compound 1039]', 'rat μ (C6-MOR) opioid receptor (Rattus norvegicus)', 6.01);

pEC50 recorded for this compound, N[C@@H](Cc1c(Cl)cc(O)cc1Cl)C(=O)N[C@@H]1CCCc2ccc(Oc3ccccc3)cc21 [Compound 1119] , is 6.93

pEC50 recorded for this compound, Cc1cc(O)cc(C)c1C[C@H](N)C(=O)N[C@@H]1CCCc2ccc(-c3ccccc3)cc21 [Compound 1117] , is 8.02

pEC50 recorded for this compound, CC(=O)N1CC[C@@H](NC(=O)[C@@H](N)Cc2c(C)cc(O)cc2C)c2cc(CN3CCc4ccc(F)cc4C3)ccc21 [Compound 1062] , is 7.63

---

- Assayed target: human κ (CHO-KOR) opioid receptor (Homo sapiens, UniProt P41145)
- Sequence (P41145 whole entry): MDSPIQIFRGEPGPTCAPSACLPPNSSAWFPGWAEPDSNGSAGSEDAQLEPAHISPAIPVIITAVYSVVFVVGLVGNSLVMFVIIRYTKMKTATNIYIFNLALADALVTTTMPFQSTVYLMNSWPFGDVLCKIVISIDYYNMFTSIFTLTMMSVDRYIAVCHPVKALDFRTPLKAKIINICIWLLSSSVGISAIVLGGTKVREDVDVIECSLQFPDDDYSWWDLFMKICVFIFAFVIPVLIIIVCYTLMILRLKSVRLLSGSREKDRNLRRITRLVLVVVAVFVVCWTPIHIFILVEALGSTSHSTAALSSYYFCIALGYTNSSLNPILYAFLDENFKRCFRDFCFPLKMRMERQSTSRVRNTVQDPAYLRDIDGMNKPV
- Procedure summary: Stimulation of [35S]GTPγS binding, KOR
- Condition details: [35S]GTPγS binding, CHO-KOR membranes; mean ± standard error
// pEC50 lookup, one value per entry
// pEC50: -log10(molar conc.)

pEC50 recorded for this compound, Cc1cc(O)cc(C)c1C[C@H](N)C(=O)NC1CCNc2ccc(Oc3ccccc3)cc21 (stereo partly shown) , is 6.02

pEC50 recorded for this compound, Cc1cc(O)cc(C)c1C[C@H](N)C(=O)N[C@@H]1CCNc2ccc(CN3CCc4ccc(F)cc4C3)cc21 , is 6.97

pEC50 recorded for this compound, CC(=O)N1CC[C@@H](NC(=O)[C@@H](N)Cc2c(C)cc(O)cc2C)c2cc(Cc3ccccc3)cc(C)c21 , is 6.03

pEC50 recorded for this compound, COc1cc(Cc2ccccc2)cc2c1N(C(C)=O)CC[C@H]2NC(=O)[C@@H](N)Cc1c(C)cc(O)cc1C , is 5.83

---

- Assayed target: human κ (CHO-KOR) opioid receptor (Homo sapiens, UniProt P41145)
- Construct: expressed in transfected cells
- Procedure summary: Stimulation of [35S]GTPγS binding, KOR
- Type: biochemical
- Condition details: [35S]GTPγS binding, CHO-KOR membranes; mean ± standard error
Property: EC50 (nm) KOR

INSERT INTO results (chemical_smiles, assayed_target, property, result) VALUES
  ('CC(=O)N1CC[C@@H](NC(=O)[C@@H](N)Cc2c(C)cc(O)cc2C)c2cc(CN3CCc4cccc(C(F)(F)F)c4C3)ccc21', 'human κ (CHO-KOR) opioid receptor (Homo sapiens, UniProt P41145)', 'EC50 (nm) KOR', 'dns'),
  ('Cc1cc(O)cc(C)c1C[C@H](N)C(=O)N[C@@H]1CCNc2c(CN3CCN(C(=O)[C@@H](N)Cc4c(C)cc(O)cc4C)CC3)cc(Cc3ccccc3)cc21', 'human κ (CHO-KOR) opioid receptor (Homo sapiens, UniProt P41145)', 'EC50 (nm) KOR', 'dns'),
  ('Cc1cc(O)cc(C)c1C[C@H](N)C(=O)N[C@@H]1CCNc2c1cc(Cc1ccccc1)cc2C(C)(C)C', 'human κ (CHO-KOR) opioid receptor (Homo sapiens, UniProt P41145)', 'EC50 (nm) KOR', 'dns');

Hey, just so you know, these numbers are from patent US10519114B2.
